Ref: PubChem BioAssay (NCATS)

molecular target: Retinoic acid receptor RXR-alpha (Homo sapiens) (UniProt P19793); assay: qHTS assay for small molecule agonists of retinoid X receptor alpha signaling (AID 588544); conditions: HEK293T RXRa-UAS-bla, beta-lactamase reporter, 18 h; series mostly up to 76.7 µM;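 further: 0% = DMSO basal wells and 100% = reference agonist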
Sequence (P19793 whole entry, looked up): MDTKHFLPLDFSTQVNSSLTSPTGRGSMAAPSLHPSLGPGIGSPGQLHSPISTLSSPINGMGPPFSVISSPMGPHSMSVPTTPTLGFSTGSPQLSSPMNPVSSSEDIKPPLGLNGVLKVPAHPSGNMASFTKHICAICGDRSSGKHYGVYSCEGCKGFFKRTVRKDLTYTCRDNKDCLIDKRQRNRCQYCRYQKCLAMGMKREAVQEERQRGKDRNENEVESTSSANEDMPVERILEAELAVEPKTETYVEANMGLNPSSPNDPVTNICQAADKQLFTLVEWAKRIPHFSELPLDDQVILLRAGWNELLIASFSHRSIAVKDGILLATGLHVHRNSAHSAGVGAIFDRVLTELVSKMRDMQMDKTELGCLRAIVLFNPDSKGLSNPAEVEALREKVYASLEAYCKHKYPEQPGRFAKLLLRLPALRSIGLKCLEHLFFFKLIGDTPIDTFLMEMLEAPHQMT
Results filed as inconclusive are left out. Calls of active or inactive are those of the source. The call rests on the fitted dose curve.
readout: outcome

// below: answered molecules
{"molecule": "CCOCCOC(C)=O", "targetOrSystem": "Retinoic acid receptor RXR-alpha (Homo sapiens) (UniProt P19793)", "result": "inactive"}
{"molecule": "CCCCC(CC)COC(=O)c1ccccc1C(=O)OCC(CC)CCCC (stereo not drawn)", "targetOrSystem": "Retinoic acid receptor RXR-alpha (Homo sapiens) (UniProt P19793)", "result": "inactive"}
{"molecule": "c1cc2ccc3cccc4ccc(c1)c2c34", "targetOrSystem": "Retinoic acid receptor RXR-alpha (Homo sapiens) (UniProt P19793)", "result": "inactive"}
{"molecule": "CN(C)NC(=O)CCC(=O)O", "targetOrSystem": "Retinoic acid receptor RXR-alpha (Homo sapiens) (UniProt P19793)", "result": "inactive"}
{"molecule": "CCCCOC(=O)c1ccccc1C(=O)OCc1ccccc1", "targetOrSystem": "Retinoic acid receptor RXR-alpha (Homo sapiens) (UniProt P19793)", "result": "inactive"}
{"molecule": "O=[N+]([O-])c1cc([N+](=O)[O-])c2ccccc2c1", "targetOrSystem": "Retinoic acid receptor RXR-alpha (Homo sapiens) (UniProt P19793)", "result": "inactive"}
{"molecule": "C=CCC1=C(C)C(OC(=O)C2C(C=C(C)C)C2(C)C)CC1=O (stereo not drawn)", "targetOrSystem": "Retinoic acid receptor RXR-alpha (Homo sapiens) (UniProt P19793)", "result": "inactive"}
{"molecule": "CCOP(=O)(NC(C)C)Oc1ccc(SC)c(C)c1 (stereo not drawn)", "targetOrSystem": "Retinoic acid receptor RXR-alpha (Homo sapiens) (UniProt P19793)", "result": "inactive"}

Item: O=[N+]([O-])c1c2ccccc2cc2ccccc12 | System: Retinoic acid receptor RXR-alpha (Homo sapiens) (UniProt P19793) | outcome: inactive

Reported Retinoic acid receptor RXR-alpha (Homo sapiens) (UniProt P19793) outcome for item Nc1ccc([N+](=O)[O-])cc1 was inactive

Item: CCCCCCCCc1ccc(O)cc1 | System: Retinoic acid receptor RXR-alpha (Homo sapiens) (UniProt P19793) | outcome: inactive

outcome value, target or system Retinoic acid receptor RXR-alpha (Homo sapiens) (UniProt P19793), for C=CC(=O)NCNC(=O)C=C : inactive

Considering O=C(O)c1cc(Oc2ccc(C(F)(F)F)cc2Cl)ccc1[N+](=O)[O-] , its outcome with Retinoic acid receptor RXR-alpha (Homo sapiens) (UniProt P19793) was recorded as inactive

* * *

Experiment: Quantitative High-Throughput drug screen in 47 multiple myeloma cell lines against the NCATS MIPE library collection: XG6_PLB cell viability assay (AID 1919865); further: nearly all actives have a fitted effect of over 40% in size
Settings: XG6 myeloma viability, CellTiter-Glo ATP luminescence, 48 h; series mostly up to 45.8 µM
Text: PI: Beverly A. Mock Ph.D. Laboratory of Cancer Biology and Genetics, Center for Cancer Research, National Cancer Institute, National Institute of Health, Bethesda, Maryland […] 5; Detector; 425V; Luminescence; Viewlux PerkinElmer. […] 1. […] Briefly, the corresponding myeloma cell lines were screened in 1,536-well plates with 500 cells, 5-uL per well for inhibition of cell viability (assessed by measuring ATP levels with CellTiterGlo). […]
Records with an inconclusive call do not appear. Activity calls are given as the source filed them. Calls follow the shape of the dose curve; as a rule, active = well fitted cell-killing curve with a large enough effect; inconclusive = small, poorly fitted or top-dose-only effect, or effect the other way; inactive = no such curve, though single readings can be large or run the other way.
Classes to choose from: active, inactive

Fill in: this test's call for CC(C)N[C@@H]1CCn2c(=O)[nH]c3cccc(c32)[C@@H]1O is ___
active

* * *

experiment: Quantitative High-Throughput drug screen in 47 multiple myeloma cell lines against the NCATS MIPE library collection: ARD_JJKsccE7 cell viability assay (AID 1918929;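 on viability: 100% = DMSO-only wells and 0% = media-only wells without cells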); settings: ARD myeloma cell line viability, CellTiter-Glo, 48 h; series mostly up to 45.8 µM
Records with an inconclusive call do not appear. The source made the active and inactive calls. Calls come from the whole dose curve; as a rule, active = well fitted cell-killing curve with a large enough effect; inconclusive = small, poorly fitted or top-dose-only effect, or effect the other way; inactive = no such curve, though single readings can be large or run the other way.
The categories you may choose from are active, inactive

Please review the following examples before continuing.
{"compound": "C=C[C@@H]1CN2CCC1C[C@H]2[C@H](O)c1ccnc2ccccc12 (stereo not given in full)", "classLabel": "inactive"}
{"compound": "O=S(=O)(F)Cc1ccccc1", "classLabel": "inactive"}
{"compound": "CC[C@@]1(O)C(=O)OCc2c1cc1n(c2=O)Cc2cc3ccccc3nc2-1", "classLabel": "active"}
{"compound": "COC1=C[C@@H]2[C@@H]3Cc4ccc(OC)c(O)c4[C@]2(CCN3C)CC1=O", "classLabel": "active"}

Now take the following compound into account.
Any idea what this test logged for CC1=C(O)C(=O)C=C2C1=CC=C1[C@@]2(C)CC[C@@]2(C)[C@@H]3C[C@](C)(C(=O)O)CC[C@]3(C)CC[C@]12C ?
active

* * *

test: qHTS of pediatric cancer cell lines to identify multiple opportunities for drug repurposing: Confirmatory screen for MG 63 (6-TG R) cells (AID 1347119); conditions: MG-63 (6-TG resistant) osteosarcoma viability; series mostly up to 45.9 µM; further: nearly all actives have a fitted effect of over 55% in size
Results filed as inconclusive are left out. The source made the active and inactive calls. Calls follow the shape of the dose curve; as a rule, active = well fitted cell-killing curve with a large enough effect; inconclusive = small, poorly fitted or top-dose-only effect, or effect the other way; inactive = no such curve, though single readings can be large or run the other way.
# valid calls are true (active), false (inactive); nothing else

{"givenSmiles": "CC1=C(O)C(=O)C=C2C1=CC=C1[C@@]2(C)CC[C@@]2(C)[C@@H]3C[C@](C)(C(=O)O)CC[C@]3(C)CC[C@]12C", "classLabel": "true"}
{"givenSmiles": "CCCN1CCO[C@@H]2c3cc(O)ccc3OC[C@@H]21", "classLabel": "false"}
{"givenSmiles": "CC(=O)[O][Hg][c]1ccccc1", "classLabel": "true"}
{"givenSmiles": "CC[C@@]1(O)C(=O)OCc2c1cc1n(c2=O)Cc2cc3ccccc3nc2-1", "classLabel": "true"}

Shifting focus to the compound that follows.
Which outcome was assigned to CCCCCC[C@H]1C(=O)O[C@H](C)[C@H](NC(=O)c2cccc(NC=O)c2O)C(=O)O[C@@H](C)[C@@H]1OC(=O)CC(C)C in this test?
true

* * *

Entries and their measured viability change follow.
test: Nrf2 qHTS screen for inhibitors: Validation (AID 493153); settings: A549 ARE-Fluc reporter, 18-24 h; measured here: cytotoxicity max response
Results filed as inconclusive are left out.
Write the answer as a number in %, unit excluded.

Some solved entries appear below for comparison.
{"molecule": "C[C@@H]1O[C@H](C[N+](C)(C)C)C[C@H]1O", "readoutNumber": -6.13}
{"molecule": "c1ccc2sc(C3(N4CCCCC4)CCCCC3)cc2c1", "readoutNumber": -6.89}
{"molecule": "COC(=O)[C@@H](N)CCCN=C(N)N[N+](=O)[O-]", "readoutNumber": -8.47}

// field: viability change; key: NC(CP(=O)(O)O)C(=O)O (stereo not given) ; value = -2.21

Consider CNCCc1ccc(O)c(O)c1 . Its measured viability change is 0.688

Data point: CNCCc1c[nH]c2ccc(O)cc12 ; viability change = 1.11

Lab note: COc1cc(C(O)CN)ccc1O (stereo not given) gave viability change of -5.73

viability change for NC(=O)CN1CC(O)CC1=O (stereo not given) is 1.59

Value of viability change reported for the molecule c1ccc(CCCN2CCN(CCOC(c3ccccc3)c3ccccc3)CC2)cc1 is -4.56

The molecule identified as S=C(NC1CCCCC1)N1CCC(c2cnc[nH]2)CC1 registered its viability change at -5.13

* * *

experiment: Cell Viability - LYMP1-002 - Assay at 40 hr (AID 994); settings: LYMP1-002 lymphoblastoid cell viability; series mostly up to 92.2 µM;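 further: 0% = DMSO only and full inhibition = 92 µM tetraoctylammonium bromide; nearly all actives have a fitted effect of over 60% in size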
Results filed as inconclusive are left out. The source made the active and inactive calls. Calls follow the shape of the dose curve; as a rule, active = well fitted cell-killing curve with a large enough effect; inconclusive = small, poorly fitted or top-dose-only effect; inactive = flat fitted curve, though single readings scatter.

{"givenSmiles": "Cc1cc(O)ccc1Cl", "outcome": "inactive"}
{"givenSmiles": "Nc1ccc(Cl)cc1", "outcome": "inactive"}
{"givenSmiles": "O=C(O)C(Cl)Cl", "outcome": "inactive"}
{"givenSmiles": "O=S(=O)(c1ccc(Cl)cc1)c1ccc(Cl)cc1", "outcome": "inactive"}

* * *

test: Quantitative High-Throughput drug screen in 47 multiple myeloma cell lines against the NCATS MIPE library collection: Delta47_JCRB cell viability assay (AID 1918925; further: nearly all actives have a fitted effect of over 45% in size); settings: Delta47 myeloma viability, CellTiter-Glo ATP, 48 h; series mostly up to 45.8 µM
Results filed as inconclusive are left out. Activity calls are given as the source filed them. Calls come from the whole dose curve; as a rule, active = well fitted cell-killing curve with a large enough effect; inconclusive = small, poorly fitted or top-dose-only effect, or effect the other way; inactive = no such curve, though single readings can be large or run the other way.
Thanks in advance; please answer with one of these: yes = active, no = inactive

{"molecule": "N#C[C@H](O[C@@H]1O[C@H](CO[C@@H]2O[C@H](CO)[C@H](O)[C@H](O)[C@H]2O)[C@H](O)[C@H](O)[C@H]1O)c1ccccc1", "classLabel": "yes"}
{"molecule": "COc1cc([C@@H]2c3cc4c(cc3[C@@H](O)C3COC(=O)C32)OCO4)cc(OC)c1O (stereo partly specified)", "classLabel": "yes"}
{"molecule": "CC[C@@H](C(N)=O)N1CCCC1=O", "classLabel": "no"}
{"molecule": "CC(C)(O)C(=O)Nc1ccc([N+](=O)[O-])c(C(F)(F)F)c1", "classLabel": "yes"}
{"molecule": "O=C(O)CNC(=O)c1c(O)c2ccccc2n(Cc2ccccc2)c1=O", "classLabel": "no"}

Any idea what this test logged for COc1ccc(CC2NCCc3cc(OC)c(OC)cc32)cc1OC (stereo unspecified) ?
no

Assay result, entry c1ccc(CCCN2CCN(CCOC(c3ccccc3)c3ccccc3)CC2)cc1 — outcome?
yes

// return assay outcome for C[C@H]1CCCC=CC2C[C@H](O)C[C@@H]2[C@H](O)C=CC(=O)O1 (stereo partly specified)
no

Record lookup: outcome of this test for C1=C2CCCN[C@H]2[C@@H]2C[C@H]1[C@@H]1CCCCN1C2 ?
no
